Target: T1, His-LXRα/FLAG-RXRα heterodimer (ligand binding domains of human LXRα and human RXRα) (human, UniProt Q13133 164-447; P19793 201-462)
T1 construct: Co-expressed in E. coli BL21(DE3) from pET15b-LXRα/FLAG-RXRα and purified together on Ni2+ resin; also called His-LXRα and FLAG-RXRα; heterodimer comprising LXRα and RXRα
T1 sequence 1: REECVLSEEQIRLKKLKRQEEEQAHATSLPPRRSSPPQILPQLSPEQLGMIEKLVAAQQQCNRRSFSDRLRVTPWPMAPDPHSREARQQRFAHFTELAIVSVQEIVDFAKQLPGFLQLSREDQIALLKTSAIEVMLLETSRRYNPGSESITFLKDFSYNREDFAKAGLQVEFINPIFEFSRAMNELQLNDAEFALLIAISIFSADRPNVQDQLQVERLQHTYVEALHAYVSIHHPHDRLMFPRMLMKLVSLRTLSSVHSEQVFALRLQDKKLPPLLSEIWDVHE
T1 sequence 2: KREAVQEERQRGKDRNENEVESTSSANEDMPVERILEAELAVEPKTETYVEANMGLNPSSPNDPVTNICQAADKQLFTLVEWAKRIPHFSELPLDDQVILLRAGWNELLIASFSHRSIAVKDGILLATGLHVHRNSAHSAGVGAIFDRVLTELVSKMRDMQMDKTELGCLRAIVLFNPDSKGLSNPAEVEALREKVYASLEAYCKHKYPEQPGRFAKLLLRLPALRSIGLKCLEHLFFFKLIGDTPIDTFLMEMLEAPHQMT
Assay: FRET (665/620 nm), anti-His tag antibody + streptavidin, biotinylated peptide; with Compound B, relative to DMSO-only control
No end group written: not given here. *: point of attachment. Biotin = O=C1N[C@H]2[C@H](CS[C@H]2CCCCC(=O)*)N1
Quantity kind: % of control

Example cases with answers are listed next.
Binder	% of control
Biotin-KESKDHQLLRYLLDKDEKDL [SRC-1-3 peptide KESKDHQLLRYLLDKDEKDL (the third LXXLL motif from the N-terminal side of SRC-1)]	112 % of control
Biotin-DGTPPPQEAEEPSLLKKLLLAPANT [PGC-1α peptide DGTPPPQEAEEPSLLKKLLLAPANT (aa 130-154)]	207 % of control
Biotin-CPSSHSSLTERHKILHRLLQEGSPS [SRC-1-2 peptide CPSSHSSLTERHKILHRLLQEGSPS (the second LXXLL motif from the N-terminal side of SRC-1)]	182 % of control

Kindly consider the entry below.
stdin: Dear colleague, I am looking for the recorded % of control of the following binder: Biotin-QKPTSGPQTPQAQQKSLLQQLLTE [SRC-1-4 peptide QKPTSGPQTPQAQQKSLLQQLLTE (the fourth LXXLL motif from the N-terminal side of SRC-1)]
stdout: 128 % of control
